Tested on: H4 (human neuroglioma) cells
Experiment: Proliferation assay (CellTiter-Glo), H4
Format: cell-based
Conditions: n = 1
PARAMETER MEASURED: pIC50
Schema: pIC50 number; meaning minus log10 of the concentration expressed in molar units.

pIC50 recorded for this compound, CS(=O)(=O)NCc1cccc(-c2ccc3c(N)c(C(=O)c4ccc(Cl)cc4Cl)oc3c2)c1 [Example 153] , is 6.77

###

Assay: Solubility in aqueous 5% dextrose
Format: physicochemical
Conditions: aqueous 5% dextrose solution, saline or isotonic, thermodynamic from solid; 5% Dextrose, pH 3, 24 h room temperature
PARAMETER MEASURED: solubility thermodynamic at 24 h (µg/mL)
Enter your answer as a number in µg/mL; do not include the unit.

Measured solubility thermodynamic at 24 h of CC(C)[C@H](N)C(=O)N(Cc1cccc(-c2ccc3c(N)c(C(=O)c4ccc(Cl)cc4Cl)oc3c2)c1)S(C)(=O)=O.Cl [Example 366] : 360

###

Assay: Solubility in aqueous 5% dextrose
Format: physicochemical
Details: aqueous 5% dextrose solution; parent compound, pH not stated
PARAMETER MEASURED: solubility at 24 h

// solubility at 24 h lookup, compound = `CS(=O)(=O)NCc1cccc(-c2ccc3c(N)c(C(=O)c4ccc(Cl)cc4Cl)oc3c2)c1` , result: < 0.1 µg/mL

###

Experiment: Solubility in aqueous 5% dextrose
Type: physicochemical
Conditions: aqueous 5% dextrose solution, saline or isotonic, thermodynamic from solid; 5% Dextrose, pH 4, 24 h room temperature
PARAMETER MEASURED: solubility thermodynamic at 24 h (µg/mL)
Please respond with the number in µg/mL and leave the unit unwritten.

solubility thermodynamic at 24 h measured on CC(C)[C@H](N)C(=O)N(Cc1cccc(-c2ccc3c(N)c(C(=O)c4ccc(Cl)cc4Cl)oc3c2)c1)S(C)(=O)=O.Cl [Example 366] = 350

###

Assay: Crossing blood brain barrier in mice
Type: in vivo, Male Ncr nude mice
Conditions: male, Ncr nude, mouse, brain, po, 1.5 h, 200 mg/kg orally for 14 days
PARAMETER MEASURED: concentration at 1.5 h (ng/mL)
State the answer as a number, implicitly in ng/mL.

Looking up CS(=O)(=O)NCc1cccc(-c2ccc3c(N)c(C(=O)c4ccc(Cl)cc4Cl)oc3c2)c1 [Example 153] , I found its concentration at 1.5 h recorded as 1000
